As shown below, each of these compounds has a reported inhibition at 10 µM value.
System: MDA MB 231 cells
Assay: Antiproliferation assay in MDA MB 231 cells (Cell Titer Glo)
Format: cell-based
Settings: Homo sapiens, MDA-MB-231, 216 h, MDAMB231 cell line, 9 day treatment, separated enantiomers A/B (Table 3)
value-type: inhibition at 10 µM

compound	value-type	experimental-value
CCC(=O)N1N=C(c2c(C)c3ccccc3[nH]c2=O)CC1c1ccc(C)cc1 (single isomer, unassigned) [Example 60B]	inhibition at 10 µM	≥ 50%
CCC(=O)N1N=C(c2c(C)c3ccsc3[nH]c2=O)CC1c1ccc(C)nc1 (single isomer, unassigned) [Example 45B]	inhibition at 10 µM	≥ 50%
CCC(=O)N1N=C(c2c(C)c3ccsc3[nH]c2=O)CC1c1ccc(Cl)cc1 (single isomer, unassigned) [Example 28B]	inhibition at 10 µM	≥ 50%
